Tested system: glucocorticoid receptor (GR) (Homo sapiens, UniProt P04150)
Construct: expressed in transfected cells; host or cells: 293T
Sequence (P04150 whole entry): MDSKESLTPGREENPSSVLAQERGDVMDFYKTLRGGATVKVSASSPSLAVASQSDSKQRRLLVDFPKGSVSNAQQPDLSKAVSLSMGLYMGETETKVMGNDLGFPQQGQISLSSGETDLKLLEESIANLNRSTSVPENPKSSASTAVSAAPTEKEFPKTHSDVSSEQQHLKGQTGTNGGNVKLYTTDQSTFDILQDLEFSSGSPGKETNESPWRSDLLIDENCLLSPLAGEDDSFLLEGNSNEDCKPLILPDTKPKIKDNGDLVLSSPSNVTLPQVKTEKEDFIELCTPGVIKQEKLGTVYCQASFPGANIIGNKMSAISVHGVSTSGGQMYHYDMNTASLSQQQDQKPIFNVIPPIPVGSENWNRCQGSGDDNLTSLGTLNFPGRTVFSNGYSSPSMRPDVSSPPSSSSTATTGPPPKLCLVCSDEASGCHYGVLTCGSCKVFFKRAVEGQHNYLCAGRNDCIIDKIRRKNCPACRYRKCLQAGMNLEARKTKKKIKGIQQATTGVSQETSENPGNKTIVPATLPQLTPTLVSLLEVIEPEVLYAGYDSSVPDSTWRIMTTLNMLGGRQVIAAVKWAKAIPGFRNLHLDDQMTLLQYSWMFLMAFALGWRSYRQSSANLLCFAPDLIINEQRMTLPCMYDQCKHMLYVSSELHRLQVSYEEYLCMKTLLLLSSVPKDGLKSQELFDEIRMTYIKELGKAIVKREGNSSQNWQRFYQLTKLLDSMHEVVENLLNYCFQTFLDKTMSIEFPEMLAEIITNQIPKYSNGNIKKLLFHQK
Assay protocol: GR-driven (MMTV) luciferase reporter assay, agonist and antagonist mode
Format: cell-based
Conditions: read-out: IC50 for GR-driven luciferase activity
Metric name: IC50 (nM)
Provide the reading as a plain figure in nM.

IC50 of C=CCOC1CC2(C)C(CCC2(O)C#CC)C2CCc3cc(C(=O)Nc4cccnc4C)ccc3C12 (stereo not shown) , assay on glucocorticoid receptor (GR) (Homo sapiens, UniProt P04150), is 0.24

###

Tested system: glucocorticoid receptor (GR) (Homo sapiens, UniProt P04150)
Construct: expressed in transfected cells; host or cells: 293T
Assay protocol: GR-driven (MMTV) luciferase reporter assay, agonist and antagonist mode
Assay type: cell-based
Conditions: read-out: IC50 for displacing 10 nM Dex; antagonist mode, 10 nM Dex
Metric name: IC50 (nM)
Provide the reading as a plain figure in nM.

Per the record, CC#CC1(O)CCC2C3CCc4cc(C(=O)Nc5cccnc5C)ccc4C3C(OCc3ccccc3Cl)CC21C (stereo not shown) has IC50 of 1

###

Tested system: glucocorticoid receptor (GR) (Homo sapiens, UniProt P04150)
Construct: expressed in transfected cells; host or cells: 293T
Assay protocol: GR-driven (MMTV) luciferase reporter assay, agonist and antagonist mode
Type: cell-based
Conditions: read-out: IC50 in the reporter assay
Metric name: pIC50
Note on pIC50: it is the negative log10 of concentration, concentration in mol/L.

Per the record, CC#CC1(O)CCC2C3CCc4cc(C(=O)Nc5cccnc5C)ccc4C3C(OCc3ccccc3Cl)CC21C (stereo not shown) [SR16024] has pIC50 of 8.82

###

Tested system: glucocorticoid receptor (GR) (Homo sapiens, UniProt P04150)
Construct: expressed in transfected cells; host or cells: 293T
Assay protocol: GR-driven (MMTV) luciferase reporter assay, agonist and antagonist mode
Assay type: cell-based
Conditions: assay not given; read-out: EC50
Metric name: EC50 (nM)
Provide the reading as a plain figure in nM.

Per the record, CC#CC1(O)CCC2C3CCc4cc(C(=O)Nc5cnccc5C)ccc4C3C(O)CC21C (stereo not shown) [SR15421] has EC50 of 240
